Hey, just so you know, these numbers are from PubChem BioAssay AID330.

# Test system: P388 leukemia ip, CD2F1 mice, survival T/C
# experiment_summary: NCI In Vivo Anticancer Drug Screen. Data for tumor model P388 Leukemia (intraperitoneal) in CD2F1 (CDF1) mice
# assay_conditions: endpoint: median survival time; dose: 400.0 mg/kg/injection; schedule: Q01DX001 (ip); vehicle: saline with Tween-80; higher = longer survival
Toxic doses and inconclusive results are not listed.
Below is a list of entries, each paired with its recorded T/C value.

Example results:
compound	reported_endpoint	result
Cc1ccc(C(=O)/C(=C/c2ccccn2)N=[N+]=[N-])cc1	T/C	99 % of control
O=C(N/N=C/c1cc(Cl)cc(Cl)c1[O-])c1ccccc1.O=C(N/N=C/c1cc(Cl)cc(Cl)c1[O-])c1ccccc1.[Cu+2]	T/C	104 % of control
CCSc1cccc2nnc(C(C)(C)C)n12	T/C	97 % of control
O=C1CSC(c2ccccc2O)N1c1ccc(N2C(=O)CSC2c2ccccc2O)cc1 (stereo not given)	T/C	87 % of control

The record that follows has no T/C shown yet.
Give T/C (P388 leukemia ip, CD2F1 mice, survival T/C) of the following compound: Nc1ccc(OCCNC(=O)c2ccc(S(=O)(=O)F)cc2)c(Cl)c1
104 % of control
